measured-on: human recombinant full-length Btk enzyme (Homo sapiens, UniProt Q06187)
Sequence (Q06187 whole entry): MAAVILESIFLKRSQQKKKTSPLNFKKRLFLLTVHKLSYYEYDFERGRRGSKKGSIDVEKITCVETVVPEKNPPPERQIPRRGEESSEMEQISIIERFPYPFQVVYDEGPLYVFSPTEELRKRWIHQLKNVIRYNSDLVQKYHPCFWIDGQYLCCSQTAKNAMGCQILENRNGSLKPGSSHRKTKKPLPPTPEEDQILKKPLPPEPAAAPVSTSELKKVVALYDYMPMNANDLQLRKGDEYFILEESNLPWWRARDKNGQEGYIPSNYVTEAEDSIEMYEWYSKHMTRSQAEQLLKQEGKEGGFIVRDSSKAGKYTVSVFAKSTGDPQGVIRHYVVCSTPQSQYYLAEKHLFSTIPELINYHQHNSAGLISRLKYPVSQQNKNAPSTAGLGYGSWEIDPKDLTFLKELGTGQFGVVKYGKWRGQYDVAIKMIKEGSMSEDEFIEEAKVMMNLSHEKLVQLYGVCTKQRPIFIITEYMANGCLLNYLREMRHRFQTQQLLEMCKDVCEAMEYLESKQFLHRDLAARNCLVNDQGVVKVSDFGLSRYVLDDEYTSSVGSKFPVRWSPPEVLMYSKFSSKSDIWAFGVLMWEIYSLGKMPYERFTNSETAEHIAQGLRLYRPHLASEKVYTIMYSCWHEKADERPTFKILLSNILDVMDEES
experimental-protocol: Omnia Continuous Read Kinase Assay, Btk inhibition
Type: biochemical
Design: human recombinant full-length Btk enzyme
condition: 30 minutes pre-incubation at 27° C.; 0.5 nM to 10 μM
assay-endpoint: IC50

# example entries with known answers
* C=CC(=O)Nc1cccc(Nc2nc(Nc3ccc(OCC(=O)O)cc3)ncc2F)c1 | ≤ 10 nM
* COCCOc1ccc(Nc2ncc(F)c(Nc3cccc(NC(=O)C(O)CO)c3)n2)cc1 (centres unmarked) | 101 to 500 nM
* COCCOc1ccc(Nc2ncc(F)c(Nc3cccc(NC(=O)CCO)c3)n2)cc1 | > 501 nM
* C=CC(=O)N(C)c1cccc(Nc2nc(Nc3ccc(OCCO)cc3)ncc2F)c1 | ≤ 10 nM
* O=C(Nc1cccc(Nc2nc(Nc3ccc(OCCO)cc3)ncc2F)c1)C(O)CO (centres unmarked) | 101 to 500 nM

Shift focus to the following entry.
For this compound ( C=CC(=O)Nc1cc(O)cc(Nc2nc(Nc3ccc(OCCOC)cc3)ncc2F)c1 ), measured IC50 is ≤ 10 nM

====

measured-on: human recombinant full-length Btk enzyme (Homo sapiens)
experimental-protocol: Covalent bonding assay, intact protein MALDI mass spectrometry
Assay type: binding
Design: The full-length recombinant human Btk protein; purchased Invitrogen Lot #619547Q (catalogue number not given)
condition: percentage of total protein covalently modified after one hour incubation, 10-fold excess of compound, room temperature
assay-endpoint: MS % modification

# example entries with known answers
- O=C(Nc1cccc(Nc2nc(Nc3ccc(OCCO)cc3)ncc2F)c1)C(O)CO (stereo not drawn): C (<30% modification)
- C=CC(=O)Nc1cccc(Nc2nc(Nc3ccc(O)cc3)ncc2F)c1: A (>70% modification)
- COCCOc1ccc(Nc2ncc(F)c(Nc3cccc(NC(=O)C(O)CO)c3)n2)cc1 (stereo not drawn): C (<30% modification)
- COCCOc1ccc(Nc2ncc(F)c(Nc3cccc(NC(=O)C4CO4)c3)n2)cc1 (stereo not drawn): A (>70% modification)

Shift focus to the following entry.
For this molecule ( O=C(Nc1cccc(Nc2nc(Nc3ccc(O)cc3)ncc2F)c1)C(O)CO (stereo not drawn) ), measured MS % modification is C (<30% modification)

====

Listing of entries alongside the reported EC50.
measured-on: BTK (Homo sapiens)
Construct: endogenous in cells; host or cells: Ramos cells
Sequence (Q06187 whole entry): as above
experimental-protocol: Btk target site occupancy, covalent probe ELISA in Ramos cells
Format: cell-based
condition: 1 hour at 37° C., 0.09-200 nM, read-out: Ramos cell EC50 (nM), BTK occupancy

# example entries with known answers
• C=CC(=O)Nc1cccc(Nc2nc(Nc3ccc(OCC(=O)O)cc3)ncc2F)c1 = > 200 nM
• C=CC(=O)N(C)c1cccc(Nc2nc(Nc3ccc(OCCO)cc3)ncc2F)c1 = < 100 nM

For this compound ( C=CC(=O)Nc1cccc(Nc2nc(Nc3ccc(OCCO)cc3)ncc2F)c1 ), measured EC50 is < 50 nM

For this compound ( C=CC(=O)Nc1cccc(N(C)c2nc(Nc3ccc(OCCO)cc3)ncc2F)c1 ), measured EC50 is < 10 nM

====

measured-on: BTK autophosphorylation (Phospho Y223 Btk) in Ramos cells (Homo sapiens)
Construct: endogenous in cells
Sequence (Q06187 whole entry): as above
experimental-protocol: Btk Ramos cell signaling immunoblot analysis, phospho-Btk
condition: 1 hour compound incubation, anti-human IgM stimulation, phospho-Btk normalized to total Btk, read-out: pBtk EC50
pEC50: −log10 of the molar value.
Listing of entries alongside the reported pEC50.

* C=CC(=O)Nc1cccc(Nc2nc(Nc3ccc(OCCO)cc3)ncc2F)c1 [Compound I-1] | > 8.00

Shift focus to the following entry.
For this molecule ( C=CC(=O)Nc1cccc(Nc2nc(Nc3ccc(O)cc3)ncc2F)c1 [Compound I-3] ), measured pEC50 is 7.30 to 8.00

These measurements were taken from patent US9415049B2.
